Reported shrunken log2 fold change values for the following sequences.
Tested on: Escherichia coli TOP10
PROCEDURE_DETAILS: shrunken log2 fold change of peptide-encoding DNA abundance (4.5 h post-induction vs induction); higher = less antimicrobial activity (less host growth inhibition)
MEASUREMENT_CONDITIONS: time post-induction: 4.5 h; library: site-saturation at positions 5, 18, 19, 20
# respond with the number and nothing more

Please review the entries below; each comes with its answer.
[
  {
    "INPUT_SEQUENCE": "RRIRLRPPRLPRPRPRPIYYPRP",
    "READOUT": "shrunken log2 fold change",
    "EXPERIMENTAL_RESULT": -0.561
  },
  {
    "INPUT_SEQUENCE": "RRIRVRPPRLPRPRPRPTIDPRP",
    "READOUT": "shrunken log2 fold change",
    "EXPERIMENTAL_RESULT": -0.0691
  },
  {
    "INPUT_SEQUENCE": "RRIRVRPPRLPRPRPRPHSYPRP",
    "READOUT": "shrunken log2 fold change",
    "EXPERIMENTAL_RESULT": -0.262
  },
  {
    "INPUT_SEQUENCE": "RRIRTRPPRLPRPRPRPHHPPRP",
    "READOUT": "shrunken log2 fold change",
    "EXPERIMENTAL_RESULT": -0.135
  },
  {
    "INPUT_SEQUENCE": "RRIRPRPPRLPRPRPRPHQQPRP",
    "READOUT": "shrunken log2 fold change",
    "EXPERIMENTAL_RESULT": -0.14
  }
]

Entry under review: "RRIRMRPPRLPRPRPRPTWYPRP" . Reported shrunken log2 fold change?
-0.112

Entry under review: "RRIRPRPPRLPRPRPRPQKQPRP" . Reported shrunken log2 fold change?
-0.294

Entry under review: "RRIRWRPPRLPRPRPRPMSPPRP" . Reported shrunken log2 fold change?
0.000834

Entry under review: "RRIRQRPPRLPRPRPRPYSAPRP" . Reported shrunken log2 fold change?
-0.00273

Entry under review: "RRIRIRPPRLPRPRPRPNPLPRP" . Reported shrunken log2 fold change?
-0.0976

Entry under review: "RRIRRRPPRLPRPRPRPVNIPRP" . Reported shrunken log2 fold change?
-0.142

Entry under review: "RRIRSRPPRLPRPRPRPLGSPRP" . Reported shrunken log2 fold change?
0.193

Entry under review: "RRIRWRPPRLPRPRPRPRDDPRP" . Reported shrunken log2 fold change?
0.341

Entry under review: "RRIRARPPRLPRPRPRPGGIPRP" . Reported shrunken log2 fold change?
0.254

Entry under review: "RRIRVRPPRLPRPRPRPHYDPRP" . Reported shrunken log2 fold change?
-0.379

Entry under review: "RRIRVRPPRLPRPRPRPCRPPRP" . Reported shrunken log2 fold change?
0.00447

Entry under review: "RRIRIRPPRLPRPRPRPRVIPRP" . Reported shrunken log2 fold change?
-0.209

Entry under review: "RRIRDRPPRLPRPRPRPYQFPRP" . Reported shrunken log2 fold change?
-0.0464

Entry under review: "RRIRQRPPRLPRPRPRPAYGPRP" . Reported shrunken log2 fold change?
-0.341

Entry under review: "RRIRGRPPRLPRPRPRPQCVPRP" . Reported shrunken log2 fold change?
-0.0809

Entry under review: "RRIRHRPPRLPRPRPRPEKRPRP" . Reported shrunken log2 fold change?
-0.01

====

System: Escherichia coli TOP10
PROCEDURE_DETAILS: shrunken log2 fold change of peptide-encoding DNA abundance (4.5 h post-induction vs induction); higher = less antimicrobial activity (less host growth inhibition)
MEASUREMENT_CONDITIONS: time post-induction: 4.5 h; library: site-saturation at positions 5, 18, 19, 20
Param threshold (-0.07) applies to shrunken log2 fold change; output 1 when value >= threshold, 0 when value < threshold.

Example results:
[
  {
    "INPUT_SEQUENCE": "RRIRERPPRLPRPRPRPEMWPRP",
    "ASSAYED_SYSTEM": "Escherichia coli TOP10",
    "LABEL": 1
  },
  {
    "INPUT_SEQUENCE": "RRIRMRPPRLPRPRPRPGAMPRP",
    "ASSAYED_SYSTEM": "Escherichia coli TOP10",
    "LABEL": 1
  },
  {
    "INPUT_SEQUENCE": "RRIRARPPRLPRPRPRPIYMPRP",
    "ASSAYED_SYSTEM": "Escherichia coli TOP10",
    "LABEL": 0
  },
  {
    "INPUT_SEQUENCE": "RRIRLRPPRLPRPRPRPSIAPRP",
    "ASSAYED_SYSTEM": "Escherichia coli TOP10",
    "LABEL": 0
  },
  {
    "INPUT_SEQUENCE": "RRIRNRPPRLPRPRPRPGFCPRP",
    "ASSAYED_SYSTEM": "Escherichia coli TOP10",
    "LABEL": 1
  }
]

Determine whether measured shrunken log2 fold change meets or exceeds -0.07 for "RRIRKRPPRLPRPRPRPDGNPRP"
1

Determine whether measured shrunken log2 fold change meets or exceeds -0.07 for "RRIRGRPPRLPRPRPRPMSNPRP"
1

Determine whether measured shrunken log2 fold change meets or exceeds -0.07 for "RRIRCRPPRLPRPRPRPICIPRP"
0

Determine whether measured shrunken log2 fold change meets or exceeds -0.07 for "RRIRCRPPRLPRPRPRPEHSPRP"
1

Determine whether measured shrunken log2 fold change meets or exceeds -0.07 for "RRIRWRPPRLPRPRPRPWLKPRP"
1

Determine whether measured shrunken log2 fold change meets or exceeds -0.07 for "RRIRNRPPRLPRPRPRPHETPRP"
0

Determine whether measured shrunken log2 fold change meets or exceeds -0.07 for "RRIRERPPRLPRPRPRPVLWPRP"
1

Determine whether measured shrunken log2 fold change meets or exceeds -0.07 for "RRIRCRPPRLPRPRPRPEVAPRP"
1

Determine whether measured shrunken log2 fold change meets or exceeds -0.07 for "RRIRIRPPRLPRPRPRPFTIPRP"
0

Determine whether measured shrunken log2 fold change meets or exceeds -0.07 for "RRIRDRPPRLPRPRPRPMNSPRP"
1

====

Tested on: Escherichia coli TOP10;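 note: peptides expressed intracellularly from a pBAD plasmid library in pooled LB shake-flask culture, induced with 0.3% L-arabinose, DNA abundance read by NGS, three biological replicates, DESeq2 with apeglm shrinkage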
PROCEDURE_DETAILS: shrunken log2 fold change of peptide-encoding DNA abundance (4.5 h post-induction vs induction); higher = less antimicrobial activity (less host growth inhibition)
MEASUREMENT_CONDITIONS: time post-induction: 4.5 h; library: site-saturation at positions 5, 18, 19, 20
Reported shrunken log2 fold change values for the following sequences.
# respond with the number and nothing more

Please review the entries below; each comes with its answer.
[
  {
    "INPUT_SEQUENCE": "RRIRSRPPRLPRPRPRPPSEPRP",
    "READOUT": "shrunken log2 fold change",
    "EXPERIMENTAL_RESULT": 0.0467
  },
  {
    "INPUT_SEQUENCE": "RRIRSRPPRLPRPRPRPDMLPRP",
    "READOUT": "shrunken log2 fold change",
    "EXPERIMENTAL_RESULT": 0.304
  },
  {
    "INPUT_SEQUENCE": "RRIRSRPPRLPRPRPRPDCPPRP",
    "READOUT": "shrunken log2 fold change",
    "EXPERIMENTAL_RESULT": 0.0922
  },
  {
    "INPUT_SEQUENCE": "RRIRHRPPRLPRPRPRPMNGPRP",
    "READOUT": "shrunken log2 fold change",
    "EXPERIMENTAL_RESULT": -0.287
  },
  {
    "INPUT_SEQUENCE": "RRIRQRPPRLPRPRPRPTRPPRP",
    "READOUT": "shrunken log2 fold change",
    "EXPERIMENTAL_RESULT": 1.05
  }
]

Entry under review: "RRIRVRPPRLPRPRPRPSKRPRP" . Reported shrunken log2 fold change?
-0.229

Entry under review: "RRIRCRPPRLPRPRPRPGTEPRP" . Reported shrunken log2 fold change?
0.078

Entry under review: "RRIRFRPPRLPRPRPRPMCAPRP" . Reported shrunken log2 fold change?
0.253

Entry under review: "RRIRLRPPRLPRPRPRPDPNPRP" . Reported shrunken log2 fold change?
0.168

Entry under review: "RRIRDRPPRLPRPRPRPNSQPRP" . Reported shrunken log2 fold change?
-0.283

Entry under review: "RRIRLRPPRLPRPRPRPQRSPRP" . Reported shrunken log2 fold change?
0.16

Entry under review: "RRIRMRPPRLPRPRPRPQKGPRP" . Reported shrunken log2 fold change?
-0.0123

Entry under review: "RRIRERPPRLPRPRPRPGVSPRP" . Reported shrunken log2 fold change?
-0.00674

Entry under review: "RRIRRRPPRLPRPRPRPGTCPRP" . Reported shrunken log2 fold change?
-0.087

Entry under review: "RRIRVRPPRLPRPRPRPDSDPRP" . Reported shrunken log2 fold change?
-0.0912

Entry under review: "RRIRHRPPRLPRPRPRPWYVPRP" . Reported shrunken log2 fold change?
0.00296

Entry under review: "RRIRERPPRLPRPRPRPCYRPRP" . Reported shrunken log2 fold change?
-0.357

Entry under review: "RRIRDRPPRLPRPRPRPKWQPRP" . Reported shrunken log2 fold change?
0.276

Entry under review: "RRIRTRPPRLPRPRPRPFYIPRP" . Reported shrunken log2 fold change?
-0.57

Entry under review: "RRIRIRPPRLPRPRPRPDSCPRP" . Reported shrunken log2 fold change?
-0.972

Entry under review: "RRIRFRPPRLPRPRPRPKYPPRP" . Reported shrunken log2 fold change?
-0.31

Entry under review: "RRIRNRPPRLPRPRPRPRPGPRP" . Reported shrunken log2 fold change?
0.638

Entry under review: "RRIRRRPPRLPRPRPRPWRLPRP" . Reported shrunken log2 fold change?
0.289

Entry under review: "RRIRYRPPRLPRPRPRPMNKPRP" . Reported shrunken log2 fold change?
-0.187

Entry under review: "RRIRNRPPRLPRPRPRPIEWPRP" . Reported shrunken log2 fold change?
-0.00176
